Would you mind telling me the reported pIC50 of each entry?
test system: 5-LOX product formation in PMNL; test: 5-LOX product formation in PMNL stimulated with A23187 (cell-based); parameters: species or system human; settings: Homo sapiens, PMNL; read-out: Effect on 5-LOX product formation in PMNL, IC50
Quick note: pIC50 values are minus log10 of concentrations in mol/L.

Would you kindly share the measured pIC50 for Cc1cc(OCc2nc3ccccc3[nH]2)ccc1NC(=O)Nc1ccc(Cl)c(Cl)c1 [EZ14] ? 6.11

Then this compound: Cc1cc(OCc2nc3ccccc3[nH]2)ccc1NC(=S)Nc1ccc(Cl)c(Cl)c1 [EZ17] 6.09

Okay, and S=C(Nc1ccc(OCc2nc3ccccc3[nH]2)cc1)Nc1ccc(Cl)c(Cl)c1 [EZ21] ? 6.16

Now try Cc1cc(OCc2nc3ccccc3s2)ccc1NC(=O)Nc1ccc(Cl)c(Cl)c1 [Compound I-12] . 6.62
